Value source: patent US20210113678A1

Known mean relative fluorescence intensity at 3.125 µM peptide of a selection of binders
# System Name: T1, HLA-A*0201 molecule on human T2 cells (human)
# T1 construct: read out with anti-HLA-A2 antibody BB7.2-PE; also called HLA-A2
# Method Summary: T2 cells expressing HLA-A*0201, anti-HLA-A2-PE, FACS
Endpoint: mean relative fluorescence intensity at 3.125 µM peptide

# Binder, Recorded Value
data = [
    ("LMDLSTTEV [FOXM1-B2]", "12.7 % of HIV peptide"),
    ("LTLGEFLKL [BIRC5-H]", "1.4 % of HIV peptide"),
    ("GLLGEFLQI (also called B1RC5-B3) [BIRC5-B3]", "8.9 % of HIV peptide"),
    ("FLVEDETVI [EZH2-B]", "14.4 % of HIV peptide"),
    ("WLPFGFILI (Fragment of human IL13RA2) [IL13RA2-H]", "3.7 % of HIV peptide"),
    ("SMEELLWFV [TYMS-B]", "30.4 % of HIV peptide"),
    ("ILDEAYVRV [EGFR-B]", "22.7 % of HIV peptide"),
    ("LMDLSTTPL (Fragment of human FOXM1) [FOXM1-H2]", "0.9 % of HIV peptide"),
    ("FLPFGFILV [IL13RA2-B]", "15.7 % of HIV peptide"),
    ("FLDSLGFST [TYMS-H2]", "4.5 % of HIV peptide"),
]
